Test system: Escherichia coli TOP10;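 note: peptides expressed intracellularly from a pBAD plasmid library in pooled LB shake-flask culture, induced with 0.3% L-arabinose, DNA abundance read by NGS, three biological replicates, DESeq2 with apeglm shrinkage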
Assay: shrunken log2 fold change of peptide-encoding DNA abundance (4.5 h post-induction vs induction); higher = less antimicrobial activity (less host growth inhibition)
Conditions: time post-induction: 4.5 h; library: site-saturation at positions 5, 18, 19, 20
Assign class by shrunken log2 fold change: not lower than -0.05 means YES; lower than -0.05 means NO.

residueSequence: RRIRIRPPRLPRPRPRPSLNPRP
qualitativeLabel: NO
--
residueSequence: RRIRVRPPRLPRPRPRPQTFPRP
qualitativeLabel: NO
--
residueSequence: RRIRWRPPRLPRPRPRPPYNPRP
qualitativeLabel: NO
--
residueSequence: RRIRIRPPRLPRPRPRPLSSPRP
qualitativeLabel: NO
--
residueSequence: RRIRQRPPRLPRPRPRPFSYPRP
qualitativeLabel: YES
--
residueSequence: RRIRWRPPRLPRPRPRPYANPRP
qualitativeLabel: NO
--
residueSequence: RRIRPRPPRLPRPRPRPCGQPRP
qualitativeLabel: YES
--
residueSequence: RRIRYRPPRLPRPRPRPMSHPRP
qualitativeLabel: NO
--
residueSequence: RRIRTRPPRLPRPRPRPSEEPRP
qualitativeLabel: YES
--
residueSequence: RRIRMRPPRLPRPRPRPNATPRP
qualitativeLabel: YES
--
residueSequence: RRIRSRPPRLPRPRPRPQSSPRP
qualitativeLabel: NO
--
residueSequence: RRIRSRPPRLPRPRPRPYNTPRP
qualitativeLabel: NO
--
residueSequence: RRIRFRPPRLPRPRPRPNFLPRP
qualitativeLabel: NO
--
residueSequence: RRIRLRPPRLPRPRPRPYMIPRP
qualitativeLabel: NO
--
residueSequence: RRIRQRPPRLPRPRPRPRPFPRP
qualitativeLabel: YES
--
residueSequence: RRIRCRPPRLPRPRPRPFRDPRP
qualitativeLabel: NO
--
residueSequence: RRIRVRPPRLPRPRPRPWMAPRP
qualitativeLabel: NO
--
residueSequence: RRIRARPPRLPRPRPRPIPSPRP
qualitativeLabel: NO
--
residueSequence: RRIRRRPPRLPRPRPRPHFQPRP
qualitativeLabel: YES
--
residueSequence: RRIRYRPPRLPRPRPRPGIMPRP
qualitativeLabel: YES
--
residueSequence: RRIRDRPPRLPRPRPRPSMHPRP
qualitativeLabel: NO
--
residueSequence: RRIRKRPPRLPRPRPRPCRKPRP
qualitativeLabel: YES
--
residueSequence: RRIRIRPPRLPRPRPRPQMDPRP
qualitativeLabel: NO
--
residueSequence: RRIRVRPPRLPRPRPRPEVEPRP
qualitativeLabel: NO
--
residueSequence: RRIRVRPPRLPRPRPRPYPGPRP
qualitativeLabel: NO
--
residueSequence: RRIRGRPPRLPRPRPRPFADPRP
qualitativeLabel: YES
--
residueSequence: RRIRMRPPRLPRPRPRPMSWPRP
qualitativeLabel: YES
--
residueSequence: RRIRIRPPRLPRPRPRPFGNPRP
qualitativeLabel: NO
--
residueSequence: RRIRQRPPRLPRPRPRPLFPPRP
qualitativeLabel: YES
--
residueSequence: RRIRARPPRLPRPRPRPWMRPRP
qualitativeLabel: YES
--
residueSequence: RRIRHRPPRLPRPRPRPTCFPRP
qualitativeLabel: YES
--
residueSequence: RRIRCRPPRLPRPRPRPKQRPRP
qualitativeLabel: YES
--
residueSequence: RRIRYRPPRLPRPRPRPKMIPRP
qualitativeLabel: NO
--
residueSequence: RRIRQRPPRLPRPRPRPDNIPRP
qualitativeLabel: YES
--
residueSequence: RRIRPRPPRLPRPRPRPTKQPRP
qualitativeLabel: YES
--
residueSequence: RRIRHRPPRLPRPRPRPCAHPRP
qualitativeLabel: YES
--
residueSequence: RRIRYRPPRLPRPRPRPARYPRP
qualitativeLabel: YES
--
residueSequence: RRIRCRPPRLPRPRPRPWFEPRP
qualitativeLabel: NO
--
residueSequence: RRIRCRPPRLPRPRPRPINIPRP
qualitativeLabel: NO
--
residueSequence: RRIRWRPPRLPRPRPRPERGPRP
qualitativeLabel: YES
--
residueSequence: RRIRPRPPRLPRPRPRPIWVPRP
qualitativeLabel: YES
--
residueSequence: RRIRIRPPRLPRPRPRPFPQPRP
qualitativeLabel: NO
--
residueSequence: RRIRARPPRLPRPRPRPVDHPRP
qualitativeLabel: YES
--
residueSequence: RRIRNRPPRLPRPRPRPVAAPRP
qualitativeLabel: YES
--
residueSequence: RRIRQRPPRLPRPRPRPKIRPRP
qualitativeLabel: YES
--
residueSequence: RRIRFRPPRLPRPRPRPTVCPRP
qualitativeLabel: YES
--
residueSequence: RRIRFRPPRLPRPRPRPYDDPRP
qualitativeLabel: NO
--
residueSequence: RRIRKRPPRLPRPRPRPLEGPRP
qualitativeLabel: YES
--
residueSequence: RRIRHRPPRLPRPRPRPIIRPRP
qualitativeLabel: NO
--
residueSequence: RRIRERPPRLPRPRPRPVPKPRP
qualitativeLabel: YES
